# ASSAY SYSTEM: P-glycoprotein (P-gp, ABCB1) (Homo sapiens, UniProt P08183)
# Sequence (P08183 whole entry): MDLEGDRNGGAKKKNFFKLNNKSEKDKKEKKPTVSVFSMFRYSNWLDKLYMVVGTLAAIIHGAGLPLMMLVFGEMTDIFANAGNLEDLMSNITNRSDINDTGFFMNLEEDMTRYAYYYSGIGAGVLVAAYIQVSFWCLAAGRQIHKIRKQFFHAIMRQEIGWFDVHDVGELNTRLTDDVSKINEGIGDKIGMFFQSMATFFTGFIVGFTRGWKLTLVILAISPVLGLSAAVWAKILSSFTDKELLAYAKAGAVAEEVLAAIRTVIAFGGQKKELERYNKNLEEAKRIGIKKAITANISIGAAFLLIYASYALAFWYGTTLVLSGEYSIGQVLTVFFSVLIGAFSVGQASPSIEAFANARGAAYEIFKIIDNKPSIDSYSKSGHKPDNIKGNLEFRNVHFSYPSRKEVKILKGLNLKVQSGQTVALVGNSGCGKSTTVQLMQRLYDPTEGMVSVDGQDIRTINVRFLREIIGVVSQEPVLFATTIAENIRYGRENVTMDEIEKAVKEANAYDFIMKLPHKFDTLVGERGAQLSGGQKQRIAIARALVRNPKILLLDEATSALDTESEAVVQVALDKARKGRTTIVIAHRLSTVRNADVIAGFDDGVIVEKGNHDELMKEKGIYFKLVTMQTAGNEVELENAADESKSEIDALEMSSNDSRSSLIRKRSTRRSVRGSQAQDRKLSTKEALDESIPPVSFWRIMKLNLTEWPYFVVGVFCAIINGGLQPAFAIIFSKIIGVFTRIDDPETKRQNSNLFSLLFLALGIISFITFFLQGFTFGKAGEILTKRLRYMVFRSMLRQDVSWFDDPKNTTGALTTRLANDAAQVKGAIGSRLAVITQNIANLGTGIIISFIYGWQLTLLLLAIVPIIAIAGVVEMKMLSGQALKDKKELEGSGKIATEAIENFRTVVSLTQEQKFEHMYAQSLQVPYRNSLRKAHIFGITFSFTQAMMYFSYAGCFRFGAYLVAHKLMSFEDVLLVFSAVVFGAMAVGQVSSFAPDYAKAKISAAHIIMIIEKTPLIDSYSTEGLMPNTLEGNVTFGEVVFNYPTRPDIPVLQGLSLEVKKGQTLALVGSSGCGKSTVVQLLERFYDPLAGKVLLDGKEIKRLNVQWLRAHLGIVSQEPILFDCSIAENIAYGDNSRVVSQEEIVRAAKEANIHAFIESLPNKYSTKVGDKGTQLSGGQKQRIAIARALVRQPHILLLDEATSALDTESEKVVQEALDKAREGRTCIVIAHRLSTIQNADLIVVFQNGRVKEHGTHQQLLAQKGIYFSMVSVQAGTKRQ
# RUN DESCRIPTION: vanadate-sensitive ATPase stimulation in membrane vesicles; also inhibits [3H]-paclitaxel efflux in KB-C2 cells
QUANTITY KIND: EC50 (µM)
Report as a plain number; the unit µM is understood.

Identify EC50 associated with the compound COCCNCc1ccc(-c2cc3nccc(Oc4ccc(NC(=S)NC(=O)Cc5ccc(F)cc5)cc4F)c3s2)nc1 3.2
